Biological target: Paired box protein Pax-6 (Homo sapiens)
Assay: ATG_Pax6_CIS: Attagene CIS-FACTORIAL HepG2 Assay for human Paired Box 6 (PAX6) (AID 2282956)
Conditions: HepG2 CIS-FACTORIAL PAX6 reporter transcription, RNA readout; actives raise or lower the signal
Activity calls are given as the source filed them. How the source made its calls: active means hit-call score of the fitted dose curve at least 0.9, where 1 is the maximum; inactive means score below 0.9.
Mark one answer only. Choices: label 1 (active), label 0 (inactive)

As a guide, the following entries are already answered.
| COMPOUND | ASSAYED TARGET | CATEGORY LABEL |
| --- | --- | --- |
| Cc1occc(=O)c1O | Paired box protein Pax-6 (Homo sapiens) | label 0 |
| CCCCCCCCCCCCCCCCO | Paired box protein Pax-6 (Homo sapiens) | label 0 |
| NCCOCCOCCN | Paired box protein Pax-6 (Homo sapiens) | label 0 |
| CC(C)(O)c1ccc(CNC(=O)c2cccnc2Oc2ccc(F)cc2)cc1 | Paired box protein Pax-6 (Homo sapiens) | label 0 |
| Cc1cc(Cc2ccc(N)c(C)c2)ccc1N | Paired box protein Pax-6 (Homo sapiens) | label 0 |
| CC(=O)CC(c1ccccc1)c1c(O)c2ccccc2oc1=O (configuration not stated) | Paired box protein Pax-6 (Homo sapiens) | label 0 |

-- ask Kindly provide the recorded test outcome for the following compound: CN(C)C(=O)NC1(c2ccccc2)CCN(CCC[C@]2(c3ccc(Cl)c(Cl)c3)CCCN(C(=O)c3ccccc3)C2)CC1
-- reply label 1

-- ask Kindly provide the recorded test outcome for the following compound: CCCCCCCCCCCCCCOS(=O)(=O)O
-- reply label 0

-- ask Kindly provide the recorded test outcome for the following compound: COC(=O)[C@H]1[C@H]2C[C@@H]3c4[nH]c5cc(OC)ccc5c4CCN3C[C@H]2C[C@@H](OC(=O)c2cc(OC)c(OC)c(OC)c2)[C@@H]1OC
-- reply label 1

-- ask Kindly provide the recorded test outcome for the following compound: CCCC(=O)O
-- reply label 0

-- ask Kindly provide the recorded test outcome for the following compound: Nc1nc(Cl)nc2c1ncn2[C@H]1C[C@H](O)[C@@H](CO)O1
-- reply label 0

-- ask Kindly provide the recorded test outcome for the following compound: O=C(O)c1[nH]n(-c2ccc(S(=O)(=O)O)cc2)c(=O)c1N=Nc1ccc(S(=O)(=O)O)cc1
-- reply label 0

====

Read-out: Urokinase-type plasminogen activator receptor (uPAR), PLAUR (gene 5329)
Experiment: BSK_BE3C_uPAR: BioMAP Diversity Plus: BE3C Assay for Urokinase-type plasminogen activator receptor (uPAR) Biomarker Activity (AID 2283039)
Conditions: primary human bronchial epithelial cells; actives raise or lower the signal
Activity calls are given as the source filed them. How the source made its calls: active means hit-call score of the fitted dose curve at least 0.9, where 1 is the maximum; inactive means score below 0.9.
Mark one answer only. Choices: active, inactive

As a guide, the following entries are already answered.
| MOLECULE | CATEGORY LABEL |
| --- | --- |
| c1ccc2occc2c1 | inactive |
| O=C1OC(c2ccc(O)cc2)(c2ccc(O)cc2)c2ccccc21 | inactive |
| CN(C)CCCN1c2ccccc2Sc2ccc(Cl)cc21 | active |

# evaluate next
-- ask Kindly provide the recorded test outcome for the following molecule: CN(C)CCCN(C)CCCN(C)C
-- reply inactive

====

Experiment: ATG_CMV_CIS: Attagene CIS-FACTORIAL HepG2 Assay for human CMV (Internal Marker) (AID 2282928);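 further: endpoint acts as a background internal control marker rather than a target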
Details: HepG2 CMV promoter reporter, transcription factor profiling; actives raise or lower the signal
The source made the active and inactive calls. The calls were made as follows: active = hit-call score of the fitted dose curve at least 0.9, where 1 is the maximum; inactive = score below 0.9.
Mark one answer only. Choices: active, inactive

| COMPOUND | CATEGORY LABEL |
| --- | --- |
| CC(=O)S[C@H](C(=O)N[C@H]1Cc2ccccc2[C@H]2CCC[C@@H](C(=O)O)N2C1=O)C(C)C | inactive |
| CCOCCOCCO | inactive |
| O=Cc1ccccc1C=O | inactive |
| Nc1nc(=S)c2[nH]cnc2[nH]1 | active |
| C/C=C/c1ccc(OC)cc1 | inactive |
| CC(C)NCC(O)c1ccc(O)c(O)c1 (centres undefined) | inactive |

# evaluate next
-- ask Kindly provide the recorded test outcome for the following compound: COc1ccc(OC(F)(F)F)cc1CN[C@H]1CCCN[C@H]1c1ccccc1
-- reply inactive
